For each of the sequences below, state its protein stability index.
Assay Method Text: protein stability index of a GFP-peptide fusion (GPS, HEK-293T) (PSI 1-6); higher = more stable;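 also: 24-mer peptide tiles fused after GFP, lentivirally expressed, FACS-sorted into six equal bins by GFP/DsRed ratio, decoded by Illumina sequencing, PSI is the read-weighted mean bin number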
Measurement Context: treatment: MLN4924 1 uM, 8 h; c terminus: a fixed tail appended
Answers are plain numbers.

1. REQGPREQEPELSFLKQKEQLEAE [PBXIP1]; 5.58
2. ECSNIPLSQPQQGEAMLANFKPRG [GAN]; 3.97
3. YESTLFEDQVPALEAPEDIGSTSE [MIA2]; 5.51

Go through the list and state protein stability index for each entry.
1. FSIDEELVYENFYADFGPLNLAMV [CDC14A]
2. LKSSILIAMAVYTYLRLIVDHHGT [INTS3]
3. RRDAEEWFHAKSAELNKEVSTNTA [KRT13]
4. VCEQCLQILYESCPKYKFISCPTC [RNF208]
5. ESGEHFRSLLGYDPQILQMLKEEH [RAD54B]
6. RAKVKTDDIARIYQPKRYALSPKT [FAM98B]

-- reply
1. 2.43
2. 3.11
3. 4.79
4. 4.09
5. 3.56
6. 3.5

====

For each of the sequences below, state its protein stability index.
Assay Method Text: protein stability index of a GFP-peptide fusion (GPS, HEK-293T) (PSI 1-6); higher = more stable
Measurement Context: treatment: MLN4924 1 uM, 8 h; c terminus: a fixed tail appended
Answers are plain numbers.

// solved cases for protein stability index follow
1. LFGGFADFGSAAASGSFPSQVTAT [CLINT1]; 3.02
2. EAGYYFFNGNYKVDSPKNFNIAGT [ADAMTSL2]; 2.44
3. WGEMTLSLFSLLIAAAVYIMDTVG [SLC19A2]; 2.46
4. SGSRPRKPPPRKHTRSWAVLKLLL [LRRC59]; 2.31
5. KADENNGFGSKNTAFCTHVFPETA [TBX5]; 3.86
6. KSQRQPRTSPSCAFRSDDTKGHPR [CDC14A]; 4.62

Go through the list and state protein stability index for each entry.
1. QLKAVHEQLAALSQAPVNKPKKKK [BRD3]
2. ELRRDSSESQLASTESDKPTTGRV [C18orf25]
3. TALGDKKSLEGDLEDLKDQIAQLE [LMNB1]
4. NGRKIMGKEVKVNWATTPSSQKKD [TIA1]
5. SMVVPLLSLHVKSLGASPTVAGIV [MFSD9]
6. AAMLSMVKYNSCADRPFSAPWWFW [POMT2]
7. LPLALYTATFAVHFMVLSKSGPGD [POMT2]

-- reply
4.6
5.39
5.27
4.55
2.4
2.1
3.01

====

Assay Method Text: protein stability index of a GFP-peptide fusion (GPS, HEK-293T) (PSI 1-6); higher = more stable
Measurement Context: treatment: MLN4924 1 uM, 8 h; c terminus: a fixed tail appended
Assign class by protein stability index: not lower than 3 means true (1); lower than 3 means false (0).

1) GSSSVALPKEASDGTGASQEPPTT [TOR1AIP2]; true (1)

-- ask Exam item: decide whether the reported protein stability index for DVTAKNIWLAESVLDILTEQREWV [INTS3] is at least 3.
-- reply false (0)

-- ask What do you have for TICYCPEKGTWTELEGDVAEPLAG [KLHL14] ?
-- reply true (1)
